Details: 298.15 K; 101.32 kPa; Liquid
READOUT: mass density (kg/m3)

>  <SMILES REPR>
CCCCO

>  <READOUT>
mass density

>  <RECORDED RESULT>
805.9

$$$$
>  <SMILES REPR>
CCCO

>  <READOUT>
mass density

>  <RECORDED RESULT>
799.6

$$$$
>  <SMILES REPR>
CO

>  <READOUT>
mass density

>  <RECORDED RESULT>
786.6

$$$$
>  <SMILES REPR>
CCO

>  <READOUT>
mass density

>  <RECORDED RESULT>
785.2

$$$$
>  <SMILES REPR>
CCCCCl

>  <READOUT>
mass density

>  <RECORDED RESULT>
881

$$$$

Hello, the source for this data is the NIST ThermoML archive (doi:10.1021/je030226s), in case you need it.
